# System Name: serotonin 1A receptor (Mus musculus, UniProt Q64264)
# Construct: into the rectum of CD-1 (ICR) male mice (25-45 g); from tissue; host or cells: living CD-1 (ICR) male mice (whole animal)
# Sequence (Q64264 1-421): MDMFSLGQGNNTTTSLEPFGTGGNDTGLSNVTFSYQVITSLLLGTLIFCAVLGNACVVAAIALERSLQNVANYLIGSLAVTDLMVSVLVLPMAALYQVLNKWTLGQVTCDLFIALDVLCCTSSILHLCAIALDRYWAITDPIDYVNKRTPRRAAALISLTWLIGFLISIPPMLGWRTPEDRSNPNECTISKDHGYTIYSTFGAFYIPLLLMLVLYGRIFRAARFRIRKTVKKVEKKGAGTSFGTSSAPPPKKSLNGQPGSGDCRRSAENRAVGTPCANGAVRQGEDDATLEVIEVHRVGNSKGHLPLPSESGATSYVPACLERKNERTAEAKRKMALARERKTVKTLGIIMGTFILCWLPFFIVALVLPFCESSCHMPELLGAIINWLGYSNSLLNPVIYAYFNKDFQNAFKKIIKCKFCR
# Experiment Description: Antagonistic effect on serotonin 1A receptor agonist-induced hypothermia in mouse
# Format: in vivo
# Recorded Conditions: sc, 15 minutes before 8-hydroxy-dipropylaminotetralin 0.5 mg/kg sc, inhibition of hypothermia, CD-1 (ICR) male mice, read-out: ED50
# strict inequality: ED50 < 0.1 mg/kg yields MET, everything else yields NOT MET

Input COc1ccc2c(c1CCN1CCC(n3ccc4ccc(C(N)=O)cc43)CC1)CCC2O (centres unmarked) ; condition: ED50 strictly below 0.1 mg/kg. Does it hold?
NOT MET

Determine if CCn1c(=O)oc2cc(OC)c(CCN3CCC(n4ccc5ccc(C(N)=O)cc54)CC3)cc21 shows ED50 strictly lower than 0.1 mg/kg.
NOT MET

Confirm or reject: ED50 of COc1cc2c(cc1CCN1CCC(n3ccc4ccc(C(N)=O)cc43)CC1)OCCO2 lies strictly below 0.1 mg/kg
MET

A record lists COc1ccc2c(=O)ccoc2c1CCN1CCC(n2ccc3ccc(C(N)=O)cc32)CC1 . Is its ED50 below 0.1 mg/kg?
NOT MET

Does COc1cc2nc(C)sc2cc1CCN1CCC(n2ccc3ccc(C(N)=O)cc32)CC1 have ED50 strictly under 0.1 mg/kg?
MET

***
Hello, I'm reviewing records and need to know if ED50 of COc1ccc2ncccc2c1CCN1CCC(n2ccc3ccc(C(N)=O)cc32)CC1 is below 0.1 mg/kg. Could you check?
NOT MET

Given the entry COc1ccc2c(c1CCN1CCC(n3ccc4ccc(C(N)=O)cc43)CC1)CCN(C)C2=O , would its reported ED50 be below 0.1 mg/kg?
NOT MET

====

# System Name: serotonin 1A receptor (Mus musculus, UniProt Q64264)
# Construct: into the rectum of CD-1 (ICR) male mice (25-45 g); from tissue; host or cells: living CD-1 (ICR) male mice (whole animal)
# Experiment Description: Antagonistic effect on serotonin 1A receptor agonist-induced hypothermia in mouse
# Assay type: in vivo
# Recorded Conditions: sc, 15 minutes before 8-hydroxy-dipropylaminotetralin 0.5 mg/kg sc, inhibition of hypothermia, CD-1 (ICR) male mice, read-out: ED50
Lab note: cut-off is 0.3 mg/kg. Strictly less in ED50 is label 1. Exactly 0.3 mg/kg or more is label 0.

A record lists COc1cc2c(cc1CCN1CCC(n3ccc4ccc(C(N)=O)cc43)CC1)N(C)C(=O)CC2 . Is its ED50 below 0.3 mg/kg?
label 1

Answer whether the compound COc1ccc2oc(C)nc2c1CCN1CCC(n2ccc3ccc(C(N)=O)cc32)CC1 has ED50 strictly less than 0.3 mg/kg
label 0

hey, is ED50 for COc1cc2nc(C)oc2cc1CCN1CCC(n2ccc3ccc(C(N)=O)cc32)CC1 lower than 0.3 mg/kg or not?
label 1

Please state whether ED50 is below 0.3 mg/kg for COc1ccc2c(=O)c(C)c(C)oc2c1CCN1CCC(n2ccc3ccc(C(N)=O)cc32)CC1
label 1

Is ED50 strictly under 0.3 mg/kg for the entry COc1ccc2c(c1CCN1CCC(n3ccc4ccc(C(N)=O)cc43)CC1)CCCN2C(C)=O ?
label 0

Find out if reported ED50 for COc1cc2c(cc1CCN1CCC(n3ccc4ccc(C(N)=O)cc43)CC1)C(=O)N(C)CC2 is less than 0.3 mg/kg
label 1

***
hey, is ED50 for COc1ccc2c(c1CCN1CCC(n3ccc4ccc(C(N)=O)cc43)CC1)OCCO2 lower than 0.3 mg/kg or not?
label 1

I'd appreciate it if you could check whether COc1cc2ccccc2cc1CCN1CCC(n2ccc3ccc(C(N)=O)cc32)CC1 has ED50 smaller than 0.3 mg/kg.
label 1

Just wondering, is ED50 of COc1cc2oc(C)nc2cc1CCN1CCC(n2ccc3ccc(C(N)=O)cc32)CC1 below 0.3 mg/kg?
label 1

Would you kindly verify if ED50 of CNC(=O)c1ccc2ccn(C3CCN(CCc4cc5c(cc4OC)CCC(=O)N5C)CC3)c2c1 is strictly less than 0.3 mg/kg?
label 0

For COc1ccc2ccccc2c1CCN1CCC(n2ccc3ccc(C(N)=O)cc32)CC1 , is the recorded ED50 below the cut-off of 0.3 mg/kg?
label 0

ED50 under 0.3 mg/kg? Item: CCc1nc2cc(CCN3CCC(n4ccc5ccc(C(N)=O)cc54)CC3)c(OC)cc2o1
label 0

Does this compound meet the criterion ED50 < 0.3 mg/kg? NC(=O)c1ccc2ccn(C3CCN(CCc4ccc(F)cc4)CC3)c2c1 [Compound A, reference compound]
label 0

Problem: For the compound COc1ccc2c(c1CCN1CCC(n3ccc4ccc(C(N)=O)cc43)CC1)OCCC2=O , is ED50 under 0.3 mg/kg?
label 1

====

# System Name: serotonin 1A receptor (Mus musculus, UniProt Q64264)
# Construct: into the rectum of CD-1 (ICR) male mice (25-45 g); from tissue; host or cells: living CD-1 (ICR) male mice (whole animal)
# Experiment Description: Antagonistic effect on serotonin 1A receptor agonist-induced hypothermia in mouse
# Format: in vivo
# Recorded Conditions: sc, 15 minutes before 8-hydroxy-dipropylaminotetralin 0.5 mg/kg sc, inhibition of hypothermia, CD-1 (ICR) male mice, read-out: ED50
Result Type: ED50 (mg/kg)
Express it in mg/kg; write the number only.

Recall the recorded ED50 for COc1ccc2c(c1CCN1CCC(n3ccc4ccc(C(N)=O)cc43)CC1)OCCC2O (stereo not drawn) [Compound 46] with serotonin 1A receptor (Mus musculus, UniProt Q64264) and state it.
0.3

Request - read-out ED50 | tested on serotonin 1A receptor (Mus musculus, UniProt Q64264) | molecule COc1cc2c(cc1CCN1CCC(n3ccc4ccc(C(N)=O)cc43)CC1)N(C)CCC2 [Compound 53]
0.3

Give ED50 (serotonin 1A receptor (Mus musculus, UniProt Q64264)) of the following molecule: COc1cc2onc(C)c2cc1CCN1CCC(n2ccc3ccc(C(N)=O)cc32)CC1 [Compound 2]
0.4

Form field - read-out: ED50; system: serotonin 1A receptor (Mus musculus, UniProt Q64264); submitted item: CNC(=O)c1ccc2ccn(C3CCN(CCc4c(OC)ccc5c4OC(C)(C)CC5=O)CC3)c2c1 [Compound 20]
0.03

Query for serotonin 1A receptor (Mus musculus, UniProt Q64264): what ED50 does the record show for COc1cc2c(cc1CCN1CCC(n3ccc4ccc(C(N)=O)cc43)CC1)C(=O)CC2 [Compound 26] ?
0.25

In the following, a different molecule is considered.
Which measured ED50 belongs to COc1cc2c(cc1CCN1CCC(n3ccc4ccc(C(N)=O)cc43)CC1)C(=O)N(C)CCO2 [Compound 9] , tested on serotonin 1A receptor (Mus musculus, UniProt Q64264)?
0.3
